Test Description: ATG_GATA_CIS: Attagene CIS-FACTORIAL HepG2 Assay for human GATA Binding Protein (AID 2282944)
Test Parameters: HepG2 GATA cis-element reporter, Attagene multiplex mRNA; actives raise or lower the signal
Active and inactive are the calls of the source. How the source made its calls: active means hit-call score of the fitted dose curve at least 0.9, where 1 is the maximum; inactive means score below 0.9.
Respond only with the outcome that fits, drawn from Y (active), N (inactive)

Examples with answers:
>>> class("CC(=Cc1ccccc1)[N+](=O)[O-]")
"Y"
>>> class("CCOc1cc(C=O)ccc1O")
"N"
>>> class("FC(F)OCC(F)(F)C(F)(F)F")
"N"
>>> class("C=CC(=O)NC(C)(C)CC(C)=O")
"N"
>>> class("Cc1cccc(OP(=O)(Oc2cccc(C)c2)Oc2cccc(C)c2)c1")
"N"

Any idea what this test logged for O=C(CCl)Nc1ccccc1 ?
Y

Any idea what this test logged for O=[N+]([O-])c1ccc(Nc2ccccc2)cc1 ?
N

Any idea what this test logged for CCC[N+](CCC)(CCC)CCC ?
N

Any idea what this test logged for CCCCCCCCCCCCc1cccc(S(=O)(=O)O)c1 ?
N

Any idea what this test logged for CC1CC(=O)O1 (centres undefined) ?
N

Any idea what this test logged for c1cc[c]([Sb]([c]2ccccc2)[c]2ccccc2)cc1 ?
N

----------
Test Description: ATG_FoxO_CIS: Attagene CIS-FACTORIAL HepG2 Assay for human Forkhead box O (FoxO) (AID 2282943)
Test Parameters: HepG2 Attagene cis-reporter, FoxO element, mRNA; actives raise or lower the signal
Calls of active or inactive are those of the source. Rule for the calls: active = hit-call score of the fitted dose curve at least 0.9, where 1 is the maximum; inactive = score below 0.9.
Respond only with the outcome that fits, drawn from active, inactive

Examples with answers:
>>> class("Nc1ccc(-c2ccccc2)cc1")
"inactive"
>>> class("CCCCCCCCCCCCN(C)C")
"active"
>>> class("COc1nn(C(=O)NS(=O)(=O)c2ccccc2OC(F)(F)F)c(=O)n1C")
"inactive"
>>> class("Nc1cccnc1")
"inactive"
>>> class("CCOP(=S)(OCC)O/N=C(\\C#N)c1ccccc1")
"inactive"
>>> class("O=S(=O)(C(Cl)(Cl)Cl)C(Cl)(Cl)Cl")
"inactive"
>>> class("Cc1cc(Cl)ccc1OCCCC(=O)O")
"inactive"
>>> class("CCOc1cc(C=O)ccc1O")
"inactive"
>>> class("CCCSP(=S)(OCC)Oc1ccc(Cl)cc1Cl (centres undefined)")
"inactive"
>>> class("CC(C)(C)c1cc([N+](=O)[O-])cc(C(C)(C)C)c1O")
"inactive"

Any idea what this test logged for Cc1ccccc1OP(=O)(Oc1ccccc1C)Oc1ccccc1C ?
inactive

Any idea what this test logged for N#CCC#N ?
inactive

Any idea what this test logged for CC(O)(CS(=O)(=O)c1ccc(F)cc1)C(=O)Nc1ccc(C#N)c(C(F)(F)F)c1 (centres undefined) ?
inactive

Any idea what this test logged for COCCl ?
inactive

Any idea what this test logged for O=C(NC(=O)c1c(F)cccc1F)Nc1cc(Cl)c(OC(F)(F)C(F)C(F)(F)F)cc1Cl (centres undefined) ?
inactive

Any idea what this test logged for CC[N+](CC)(CC)CC ?
inactive

Any idea what this test logged for Nc1c(Oc2ccccc2)cc(O)c2c1C(=O)c1ccccc1C2=O ?
inactive

----------
Test Description: ATG_EGR_CIS: Attagene CIS-FACTORIAL HepG2 Assay for human Early Growth Response 1 (EGR1) (AID 2282938)
Test Parameters: HepG2 Attagene CIS-FACTORIAL EGR reporter mRNA; actives raise or lower the signal
Description: ATG_CIS is a cell-based, multiplexed-readout assay that uses HepG2, a human liver cell line, with measurements taken at 24 hours after chemical dosing in a 24-well plate.ATG_EGR_CIS is one of 52 assay component(s) measured or calculated from the ATG_CIS assay. […] This assay endpoint, ATG_EGR_CIS, was analyzed with bidirectional fitting relative to DMSO as the negative control and baseline of activity. […]
Activity calls are given as the source filed them. The calls were made as follows: active = hit-call score of the fitted dose curve at least 0.9, where 1 is the maximum; inactive = score below 0.9.
Respond only with the outcome that fits, drawn from t (active), f (inactive)

Examples with answers:
>>> class("Nc1nc(=S)[nH][nH]1")
"f"
>>> class("Fc1cccc(Cl)c1CCl")
"f"
>>> class("C=CCOC(F)(C(F)(F)F)C(F)(F)F")
"f"
>>> class("Cc1cc(Cl)ccc1O")
"f"
>>> class("CCCCCCCCCCCCCl")
"f"

Any idea what this test logged for O=C/C(Cl)=C(/Cl)C(=O)O ?
t

----------
Test Description: ATG_NRF2_ARE_CIS: Attagene CIS-FACTORIAL HepG2 Assay for human Nuclear Factor Erythroid 2 Related Factor 2 (NFR2) response to Antioxidant Response Elements (ARE) (AID 2282992);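 on AC50: reporter mRNA level measured by RT-PCR and capillary electrophoresis fluorescence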
Test Parameters: HepG2 Attagene ARE/NRF2 reporter, transcription factor activity; actives raise or lower the signal
Active and inactive are the calls of the source. The calls were made as follows: active = hit-call score of the fitted dose curve at least 0.9, where 1 is the maximum; inactive = score below 0.9.
Measured Parameter: AC50

A selection of reference data follows.
>>> result("CCCCOP(=O)(CCCC)OCCCC")
"inactive"
>>> result("CC(C)[N+](=O)[O-]")
"inactive"
>>> result("Cc1cc(SCc2sc(-c3ccc(C(F)(F)F)c(F)c3)nc2C)ccc1OCC(=O)O")
"inactive"
>>> result("O=C1C=CC(=O)c2ccccc21")
"2.23 µM (active)"
>>> result("CC1(C)[C@H](C(=O)O[C@H](C#N)c2cccc(Oc3ccccc3)c2)[C@@H]1/C=C(\\Cl)C(F)(F)F")
"inactive"

Look at this molecule and give its reported AC50. CCCCN(CCCC)C(=S)S
23.5 µM (active)

Look at this molecule and give its reported AC50. BrCC(Br)c1ccccc1 (stereo not given)
inactive

Look at this molecule and give its reported AC50. CCCCCCCCCCBr
68.6 µM (active)

Look at this molecule and give its reported AC50. Clc1cccc(Cl)c1
inactive

Look at this molecule and give its reported AC50. N#CCC#N
inactive

Look at this molecule and give its reported AC50. CCN(N=O)C(N)=O
inactive

Look at this molecule and give its reported AC50. CCOc1ccc(N)cc1
inactive

Look at this molecule and give its reported AC50. ClCCN1CCOCC1
inactive

Look at this molecule and give its reported AC50. CC(C)N(C(=O)CCl)c1ccccc1
2.75 µM (active)

Look at this molecule and give its reported AC50. CCOP(=S)(OCC)Oc1ccc(Cl)cc1Cl
43.7 µM (active)

----------
Read-out: Interleukin-6 (IL6), IL6 (gene 3569)
Test Description: BSK_CASM3C_IL6: BioMAP Diversity Plus: CASM3C Assay for Interleukin-6 (IL6) Biomarker Activity for (AID 2283040)
Test Parameters: primary human coronary artery smooth muscle cells; actives raise or lower the signal
Active and inactive are the calls of the source. The calls were made as follows: active = hit-call score of the fitted dose curve at least 0.9, where 1 is the maximum; inactive = score below 0.9.
Respond only with the outcome that fits, drawn from y for active, n for inactive

Examples with answers:
>>> class("O=C(N[C@H]1CN2CCC1CC2)c1ccc2c(c1)OCCO2")
"n"
>>> class("CCC(C)(C#N)N=NC(C)(C#N)CC (stereo not given)")
"n"
>>> class("O=C(Cc1ccccc1)OCCc1ccccc1")
"n"
>>> class("Cc1cccc(OP(=O)(Oc2cccc(C)c2)Oc2cccc(C)c2)c1")
"n"
>>> class("C[C@]12CC[C@@H](O)C[C@@H]1CC[C@@H]1[C@@H]2CC[C@]2(C)C(=O)CC[C@@H]12")
"n"

Any idea what this test logged for CN(C)C(=S)S ?
n

Any idea what this test logged for Cc1cc(C(C)(C)c2ccc(O)c(C)c2)ccc1O ?
y

Any idea what this test logged for O=S(=O)(c1ccc(Cl)cc1)c1cc(Cl)c(Cl)cc1Cl ?
n

Any idea what this test logged for CC(C)(COCC1CO1)COCC1CO1 (stereo not given) ?
n

Any idea what this test logged for O=C(O)C1(c2ccc3c(c2)OC[C@H](Cc2ccc(-c4ccccc4)cc2)[C@H]3O)CCCC1 ?
n

----------
Test system: SRD5A2 (gene 6716)
Test Description: CCTE_Deisenroth_5AR_NBTE_ratio: CCTE's 5alpha-reductase NanoBRET Target Engagement Assay - Ratio, Deisenroth Lab (AID 2284322)
Test Parameters: actives raise or lower the signal
Description: CCTE_Deisenroth_5AR NBTE (5alpha-reductase NanoBRET Target Engagement Assay) is a cell-based, single-readout assay that uses HEK293T, a human kidney cell line, with measurements taken at 5 hours after chemical dosing in a 384 well plate. This assay includes a primary and secondary screen as well as an autofluorscence screen.CCTE_Deisenroth_5AR NBTE_ratio is one of four assay components calculated from the CCTE_Deisenroth_5AR NBTE assay. […]
The source made the active and inactive calls. Rule for the calls: active = hit-call score of the fitted dose curve at least 0.9, where 1 is the maximum; inactive = score below 0.9.
Respond only with the outcome that fits, drawn from true (1) for active, false (0) for inactive

Examples with answers:
>>> class("CCOP(=S)(OCC)O/N=C(\\C#N)c1ccccc1")
"true (1)"
>>> class("N#CCCC(Br)(C#N)CBr (centres undefined)")
"true (1)"
>>> class("CCC[CH2][Sn]([Cl])([Cl])[CH2]CCC")
"true (1)"

Now consider the entry below.
Any idea what this test logged for CC(=Cc1ccccc1)[N+](=O)[O-] ?
false (0)

----------
Test System: Peroxisome proliferator-activated receptor gamma (Homo sapiens)
Test Description: ATG_PPARg_TRANS: Attagene TRANS-FACTORIAL HepG2 Assay for human Peroxisome Proliferator-activated Receptor-gamma (PPARg) (AID 2283007)
Results filed as inconclusive are left out. Activity calls are given as the source filed them. How the source made its calls: active means hit-call score of the fitted dose curve at least 0.9, where 1 is the maximum; inconclusive means response in the unintended direction; inactive means score below 0.9.
Respond only with the outcome that fits, drawn from T for active, F for inactive

Examples with answers:
>>> class("COC(F)(C(F)(F)C(F)(F)F)C(F)(C(F)(F)F)C(F)(F)F (stereo not drawn)")
"F"
>>> class("Oc1ccc(Cc2ccc(O)cc2)cc1")
"T"
>>> class("Cc1cc(SCc2sc(-c3ccc(C(F)(F)F)c(F)c3)nc2C)ccc1OCC(=O)O")
"T"
>>> class("O=C(Nc1ccc(Br)cc1)c1cc(Br)cc(Br)c1O")
"T"
>>> class("CCOC(=O)CCN(SN(C)C(=O)Oc1cccc2c1OC(C)(C)C2)C(C)C")
"T"
>>> class("C=CC(=O)OCC(COC(=O)C=C)(COC(=O)C=C)COC(=O)C=C")
"T"

Any idea what this test logged for O=C(O)c1cc(I)cc(I)c1I ?
T

Any idea what this test logged for CCC(C)(C#N)N=NC(C)(C#N)CC (stereo not drawn) ?
F

Any idea what this test logged for O=S(=O)(F)C(F)(F)C(F)(F)C(F)(F)C(F)(F)F ?
F

Any idea what this test logged for CC(C)[N+](=O)[O-] ?
F

Any idea what this test logged for CC(C)[C@H](C(=O)OC(C#N)c1cccc(Oc2ccccc2)c1)c1ccc(OC(F)F)cc1 (stereo partly drawn) ?
F
